# experimental_target: ZNF543
# assay_info: pooled miR-30 sensor sort-seq; sequence = guide strand
# condition_details: shRNA
Collected sensor-assay potency score (higher = more potent) values appear next to each entry.
Give the figure only, with no unit attached.

Use the examples below as a reference point.
GET /value?item= "TAATCTTTGTACATACACCATC" &field=sensor-assay potency score (higher = more potent) returns -0.698

GET /value?item= "TTCACTTGAGTGTGAATCCGTT" &field=sensor-assay potency score (higher = more potent) returns -0.0362

GET /value?item= "TTCTGTTGAAACTTGTTTCTGT" &field=sensor-assay potency score (higher = more potent) returns 0.852

GET /value?item= "TCTTTGTACATACACCATCATC" &field=sensor-assay potency score (higher = more potent) returns -1.6

Proceeding to the next sequence to report its sensor-assay potency score (higher = more potent).
GET /value?item= "TTGTACATACACCATCATCTGA" &field=sensor-assay potency score (higher = more potent) returns -0.467

====

# experimental_target: HSPA1A
# assay_info: pooled miR-30 sensor sort-seq; sequence = guide strand
# condition_details: shRNA
Collected sensor-assay potency score (higher = more potent) values appear next to each entry.

Use the examples below as a reference point.
The sequence "TCAACATTGCAAACACAGGAAA" on HSPA1A: sensor-assay potency score (higher = more potent) was -1.05

The sequence "TTAAAAAGAAGAAATAGTCGTA" on HSPA1A: sensor-assay potency score (higher = more potent) was 0.533

The sequence "AAATTGAGAACTGACAAACAGA" on HSPA1A: sensor-assay potency score (higher = more potent) was -0.814

The sequence "TTGTCCAGCACCTTCTTCTTGT" on HSPA1A: sensor-assay potency score (higher = more potent) was 0.221

The sequence "TGCAAAGTCTTGAAGCTCCAAA" on HSPA1A: sensor-assay potency score (higher = more potent) was -0.87

Proceeding to the next sequence to report its sensor-assay potency score (higher = more potent).
The sequence "TACTAGGAAATGCAAAGTCTTG" on HSPA1A: sensor-assay potency score (higher = more potent) was -1.4

====

Collected sensor-assay potency score (higher = more potent) values appear next to each entry.
# experimental_target: TEF
# assay_info: pooled miR-30 sensor sort-seq; sequence = guide strand
# condition_details: shRNA

Use the examples below as a reference point.
The sequence "TACTTGGACACGATGGTCTTGC" on TEF: sensor-assay potency score (higher = more potent) was -0.169

The sequence "TCATCCTTCTGCTCGTCGGGGA" on TEF: sensor-assay potency score (higher = more potent) was 0.16

The sequence "TATGGGATGGTCTTGTCCCAGA" on TEF: sensor-assay potency score (higher = more potent) was -1.26

---
The sequence "TAGACTAGGTGTCTTGCCCTGC" on TEF: sensor-assay potency score (higher = more potent) was -0.327

The sequence "TAGCTCTGCTACAGGCAGCAGC" on TEF: sensor-assay potency score (higher = more potent) was -0.912

The sequence "TTGGTGACTCTAGACTAGGTGT" on TEF: sensor-assay potency score (higher = more potent) was 0.324

The sequence "TTTAGCTGCCACGTTGTTCTTC" on TEF: sensor-assay potency score (higher = more potent) was -0.221

====

# experimental_target: UST
# assay_info: pooled miR-30 sensor sort-seq; sequence = guide strand
# condition_details: shRNA
attribute_measured: sensor-assay potency score (higher = more potent)

Use the examples below as a reference point.
GET /value?item= "TACTCGTATCTCATCCGCTGGT" &field=sensor-assay potency score (higher = more potent) returns -0.000159

GET /value?item= "TTCATTTTTAGTAAGCCTGGTT" &field=sensor-assay potency score (higher = more potent) returns 0.157

GET /value?item= "AAATAGTTGGATAAGAACCGGT" &field=sensor-assay potency score (higher = more potent) returns -0.125

GET /value?item= "TTCAAGAATACACTCATTGATA" &field=sensor-assay potency score (higher = more potent) returns -0.731

Proceeding to the next sequence to report its sensor-assay potency score (higher = more potent).
GET /value?item= "TTGTTGTGAATGTCTGATGTGA" &field=sensor-assay potency score (higher = more potent) returns -0.387
